Data credit: patent US12419877B2

Test: Solubility experiments (approximate solubility by solvent aliquot addition)
Format: physicochemical
Details: organic solvent or mixture, thermodynamic from solid; Solvent: N-methyl-2-pyrrolidone (NMP); RT (ca. 22° C.); read-out: Solubility (mg/mL) RT (ca. 22° C.)
reported_property: solubility

Lookup: Answer with reported solubility of O=C(O)CNC(=O)c1ncc(-c2cccc(Cl)c2)cc1O [Form A of Compound (I)]
Found: > 200 mg/mL

###

Assay: Solubility experiments (approximate solubility by solvent aliquot addition)
Assay type: physicochemical
Settings: organic solvent or mixture, thermodynamic from solid; Solvent: Dimethyl sulfoxide (DMSO); RT (ca. 22° C.); read-out: Solubility (mg/mL) RT (ca. 22° C.)
reported_property: solubility

Lookup: Answer with reported solubility of O=C(O)CNC(=O)c1ncc(-c2cccc(Cl)c2)cc1O [Form A of Compound (I)]
Found: > 200 mg/mL
